From: PubChem BioAssay AID504710

target: Hexokinase HKDC1 (Homo sapiens) (UniProt Q2TB90); assay: HKDC1 hexokinase inhibitors, confirmation, biochemical, single concentration (AID 504710); conditions: recombinant HKDC1, G6PDH/diaphorase/resazurin fluorescence; at 20 µM; hits give high values
Sequence (Q2TB90 whole entry, looked up): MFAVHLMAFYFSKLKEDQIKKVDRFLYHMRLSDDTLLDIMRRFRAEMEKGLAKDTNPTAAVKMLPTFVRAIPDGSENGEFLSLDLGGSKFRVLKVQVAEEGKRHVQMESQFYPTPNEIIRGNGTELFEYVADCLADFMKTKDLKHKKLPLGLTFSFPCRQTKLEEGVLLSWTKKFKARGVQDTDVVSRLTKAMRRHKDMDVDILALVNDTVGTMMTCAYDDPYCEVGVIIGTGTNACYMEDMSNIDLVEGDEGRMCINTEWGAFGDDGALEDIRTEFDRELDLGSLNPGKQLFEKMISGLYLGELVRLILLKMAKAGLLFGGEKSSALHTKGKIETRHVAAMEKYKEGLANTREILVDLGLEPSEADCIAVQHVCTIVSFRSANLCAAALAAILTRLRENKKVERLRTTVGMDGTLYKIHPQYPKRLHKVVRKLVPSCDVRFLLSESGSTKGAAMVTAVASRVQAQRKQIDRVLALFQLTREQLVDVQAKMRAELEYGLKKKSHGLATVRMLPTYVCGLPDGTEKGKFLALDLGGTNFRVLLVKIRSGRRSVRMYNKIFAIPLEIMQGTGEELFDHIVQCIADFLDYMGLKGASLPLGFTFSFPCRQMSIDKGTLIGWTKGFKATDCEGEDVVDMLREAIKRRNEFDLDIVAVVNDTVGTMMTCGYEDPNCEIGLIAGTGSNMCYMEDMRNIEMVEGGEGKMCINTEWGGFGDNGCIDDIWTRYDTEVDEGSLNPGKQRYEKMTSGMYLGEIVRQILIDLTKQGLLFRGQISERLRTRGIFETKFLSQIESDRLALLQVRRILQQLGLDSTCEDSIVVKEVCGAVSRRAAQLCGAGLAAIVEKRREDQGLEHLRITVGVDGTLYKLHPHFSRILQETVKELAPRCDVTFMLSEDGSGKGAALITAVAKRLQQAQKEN
Given measured inhibition, output criterion met if it is greater than or equal to 10% and criterion not met if not.

compound	labelValue
COCC(=O)OC1CCn2c1nc1c2C(=O)C(C)=C(NC(C)=O)C1=O (stereo not drawn)	criterion met
O=C(O)c1cc(O)c2c(c1)[C@H]([C@H]1c3cc(C(=O)O)cc(O)c3C(=O)c3c(O[C@@H]4O[C@H](CO)[C@@H](O)[C@H](O)[C@H]4O)cccc31)c1cccc(OC3O[C@H](CO)[C@@H](O)[C@H](O)[C@H]3O)c1C2=O (stereo partly drawn)	criterion met
Cc1cccc(-n2c3nc(=O)[nH]c(=O)c-3cc3cc([N+](=O)[O-])ccc32)c1	criterion met
S=C1Cc2ccccc2N1	criterion not met
O=C(c1ccccc1)c1n[nH]c(-c2ccccc2)cc1=O	criterion met
Oc1ccc(/C=N/NC(=S)Nc2cccnc2)c(O)c1	criterion met
Fc1ccccc1N=C1NN=C(c2ccccc2)CS1	criterion not met
CC(=NNC(=S)Nc1cccc(Cl)c1)c1ccccn1	criterion not met
